Attribute: Mean IC50 (Curve)
# Assayed target: F protein of RSV (Long strain) (RSV (Long strain), UniProt P12568 26-574)
# Sequence (P12568 26-574): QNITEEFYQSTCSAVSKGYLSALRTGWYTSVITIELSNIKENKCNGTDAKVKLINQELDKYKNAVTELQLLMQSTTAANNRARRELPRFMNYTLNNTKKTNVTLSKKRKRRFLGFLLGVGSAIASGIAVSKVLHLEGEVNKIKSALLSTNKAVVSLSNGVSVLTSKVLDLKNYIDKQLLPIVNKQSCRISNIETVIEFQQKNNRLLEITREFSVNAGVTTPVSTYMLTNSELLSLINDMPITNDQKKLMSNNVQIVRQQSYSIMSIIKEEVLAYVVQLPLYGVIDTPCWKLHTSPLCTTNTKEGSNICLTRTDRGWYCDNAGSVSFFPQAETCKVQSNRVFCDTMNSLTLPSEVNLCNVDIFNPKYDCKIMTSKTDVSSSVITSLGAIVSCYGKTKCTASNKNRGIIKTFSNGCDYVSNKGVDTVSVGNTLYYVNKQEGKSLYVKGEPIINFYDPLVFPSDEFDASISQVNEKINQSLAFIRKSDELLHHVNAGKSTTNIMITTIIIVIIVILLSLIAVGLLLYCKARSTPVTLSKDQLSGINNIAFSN
# Assay: cell-based or functional assay
Field: numeric (µg/mL). Do not append units.

[
  {
    "Binder": "A13c4 Fab (Fab, V domains shown) VH: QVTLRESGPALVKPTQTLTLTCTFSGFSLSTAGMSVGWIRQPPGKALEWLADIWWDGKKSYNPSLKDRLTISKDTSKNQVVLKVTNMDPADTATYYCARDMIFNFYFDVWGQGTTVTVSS VL: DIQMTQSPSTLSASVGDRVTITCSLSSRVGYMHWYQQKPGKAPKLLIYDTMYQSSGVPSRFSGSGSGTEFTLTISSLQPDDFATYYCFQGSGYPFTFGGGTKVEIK",
    "Units label": "µg/mL",
    "Mean IC50 (Curve)": 0.0264
  },
  {
    "Binder": "P11d4 IgG (antibody, V domains shown) VH: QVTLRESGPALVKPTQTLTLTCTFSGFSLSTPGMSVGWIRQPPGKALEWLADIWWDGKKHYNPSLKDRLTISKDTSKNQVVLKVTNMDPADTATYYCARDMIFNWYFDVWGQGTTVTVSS VL: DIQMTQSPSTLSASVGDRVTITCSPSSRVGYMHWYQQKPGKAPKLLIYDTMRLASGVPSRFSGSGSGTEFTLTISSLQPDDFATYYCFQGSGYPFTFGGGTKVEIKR",
    "Units label": "µg/mL",
    "Mean IC50 (Curve)": 0.0217
  },
  {
    "Binder": "P12f2 IgG (antibody, V domains shown) VH: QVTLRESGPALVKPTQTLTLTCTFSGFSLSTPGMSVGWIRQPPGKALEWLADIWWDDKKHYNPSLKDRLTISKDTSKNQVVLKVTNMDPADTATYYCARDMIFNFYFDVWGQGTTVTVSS VL: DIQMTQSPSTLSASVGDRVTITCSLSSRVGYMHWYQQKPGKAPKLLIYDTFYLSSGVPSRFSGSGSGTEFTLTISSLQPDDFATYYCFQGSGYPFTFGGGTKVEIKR",
    "Units label": "µg/mL",
    "Mean IC50 (Curve)": 0.0231
  },
  {
    "Binder": "A1e9 IgG (antibody, V domains shown, also called Ale9) VH: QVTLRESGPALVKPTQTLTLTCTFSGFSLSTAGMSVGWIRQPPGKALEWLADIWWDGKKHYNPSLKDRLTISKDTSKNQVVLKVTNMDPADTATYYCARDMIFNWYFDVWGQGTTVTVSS VL: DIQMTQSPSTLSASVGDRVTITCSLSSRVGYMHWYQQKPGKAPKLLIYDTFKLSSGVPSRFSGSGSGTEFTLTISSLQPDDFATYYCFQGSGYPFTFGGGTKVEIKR",
    "Units label": "µg/mL",
    "Mean IC50 (Curve)": 0.0625
  },
  {
    "Binder": "A8c7 IgG (antibody, V domains shown) VH: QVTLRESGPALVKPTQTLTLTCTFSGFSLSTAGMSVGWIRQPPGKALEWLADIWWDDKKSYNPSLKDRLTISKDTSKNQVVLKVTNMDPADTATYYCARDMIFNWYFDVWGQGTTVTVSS VL: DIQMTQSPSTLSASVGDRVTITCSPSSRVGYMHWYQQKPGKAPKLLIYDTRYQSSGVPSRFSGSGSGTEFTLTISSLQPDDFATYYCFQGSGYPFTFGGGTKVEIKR",
    "Units label": "µg/mL",
    "Mean IC50 (Curve)": 0.0337
  }
]

Task: So what does the record say about Mean IC50 (Curve) for A13a11 Fab (Fab, V domains shown) VH: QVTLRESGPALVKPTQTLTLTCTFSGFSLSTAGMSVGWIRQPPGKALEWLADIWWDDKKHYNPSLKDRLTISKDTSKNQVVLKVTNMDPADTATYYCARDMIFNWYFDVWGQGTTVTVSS VL: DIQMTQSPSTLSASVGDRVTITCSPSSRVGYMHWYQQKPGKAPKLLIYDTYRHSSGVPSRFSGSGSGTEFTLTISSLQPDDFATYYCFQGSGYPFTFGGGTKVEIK ?
Output: 0.12

Task: So what does the record say about Mean IC50 (Curve) for A13c4 IgG (antibody, V domains shown) VH: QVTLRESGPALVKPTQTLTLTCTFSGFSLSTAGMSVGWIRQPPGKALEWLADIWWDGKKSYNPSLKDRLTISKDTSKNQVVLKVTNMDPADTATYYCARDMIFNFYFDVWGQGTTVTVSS VL: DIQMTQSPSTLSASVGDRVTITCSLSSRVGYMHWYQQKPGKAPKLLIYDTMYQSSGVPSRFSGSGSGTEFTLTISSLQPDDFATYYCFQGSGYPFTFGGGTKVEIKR ?
Output: 0.0376

Task: So what does the record say about Mean IC50 (Curve) for A8c7 Fab (Fab, V domains shown) VH: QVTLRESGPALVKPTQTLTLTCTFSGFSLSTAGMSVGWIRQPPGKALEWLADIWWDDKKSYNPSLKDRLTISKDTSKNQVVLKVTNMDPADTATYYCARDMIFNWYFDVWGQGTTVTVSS VL: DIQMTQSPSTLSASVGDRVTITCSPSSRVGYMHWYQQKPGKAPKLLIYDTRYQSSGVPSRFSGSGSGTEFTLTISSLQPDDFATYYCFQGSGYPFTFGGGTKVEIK ?
Output: 0.177

Task: So what does the record say about Mean IC50 (Curve) for A4B4 IgG (antibody, V domains shown) VH: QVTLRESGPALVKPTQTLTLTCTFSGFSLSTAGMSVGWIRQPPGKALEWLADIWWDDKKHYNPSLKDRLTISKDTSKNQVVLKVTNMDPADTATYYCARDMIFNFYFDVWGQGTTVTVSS VL: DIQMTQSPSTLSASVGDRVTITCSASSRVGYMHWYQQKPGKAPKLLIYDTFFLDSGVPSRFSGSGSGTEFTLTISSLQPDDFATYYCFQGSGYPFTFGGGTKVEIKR ?
Output: 0.0171
